Biological target: Acetylcholinesterase from Electrophorus electricus (electric eel) (AChE) (Electrophorus electricus)
Sequence (O42275 24-633): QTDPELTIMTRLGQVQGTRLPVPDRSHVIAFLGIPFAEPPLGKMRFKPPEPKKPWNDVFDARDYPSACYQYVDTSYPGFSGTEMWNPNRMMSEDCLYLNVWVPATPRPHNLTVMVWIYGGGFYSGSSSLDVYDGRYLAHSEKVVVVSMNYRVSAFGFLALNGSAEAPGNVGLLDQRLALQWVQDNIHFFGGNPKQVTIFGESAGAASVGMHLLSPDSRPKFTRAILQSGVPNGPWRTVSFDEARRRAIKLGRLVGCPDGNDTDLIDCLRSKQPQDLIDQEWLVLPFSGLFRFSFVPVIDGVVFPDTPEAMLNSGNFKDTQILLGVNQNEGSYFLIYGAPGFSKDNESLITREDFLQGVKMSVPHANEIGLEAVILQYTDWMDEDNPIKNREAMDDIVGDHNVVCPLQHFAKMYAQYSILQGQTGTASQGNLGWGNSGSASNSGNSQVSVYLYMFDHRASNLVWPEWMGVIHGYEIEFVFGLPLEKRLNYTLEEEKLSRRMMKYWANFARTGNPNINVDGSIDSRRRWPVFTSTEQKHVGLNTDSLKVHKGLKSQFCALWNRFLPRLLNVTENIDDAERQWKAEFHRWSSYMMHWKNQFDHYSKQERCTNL
Format: biochemical
Details: 36.6 °C, AChE 1 μmol/L in cell, syringe hydroxybenzoic acid 0.5 mmol/L and ACh 1 mmol/L, mean ± SD of three
Mark true (1) for reported % Inhibition (inhibitory activity, ITC) of 80% or greater; mark false (0) for anything smaller.

Textbook exercise: given the entry O=C(O)c1ccc(O)c(O)c1 [protocatechuic acid] , state whether its % Inhibition (inhibitory activity, ITC) is greater than or equal to 80%.
false (0)

Can COc1cc(C(=O)O)ccc1O [vanillic acid] be said to have % Inhibition (inhibitory activity, ITC) at or above 80%?
false (0)

Next:
% Inhibition (inhibitory activity, ITC) >= 80% for O=C(O)Cc1cc(O)ccc1O [homogentisic acid] ?
false (0)

Hello, I need to know if COc1cc(CC(=O)O)ccc1O [homovanillic acid] has measured % Inhibition (inhibitory activity, ITC) not below 80%. Thanks!
false (0)

Can C[C@H](Cc1ccc(O)c(O)c1)[C@@H](C)Cc1ccc(O)c(O)c1 [nordihydroguaiaretic acid] be said to have % Inhibition (inhibitory activity, ITC) at or above 80%?
false (0)
